Target Or System: LRRK2 (G2019S) (Homo sapiens, UniProt Q5S007, G2019S)
Sequence (Q5S007 970-2527 G2019S limits assumed): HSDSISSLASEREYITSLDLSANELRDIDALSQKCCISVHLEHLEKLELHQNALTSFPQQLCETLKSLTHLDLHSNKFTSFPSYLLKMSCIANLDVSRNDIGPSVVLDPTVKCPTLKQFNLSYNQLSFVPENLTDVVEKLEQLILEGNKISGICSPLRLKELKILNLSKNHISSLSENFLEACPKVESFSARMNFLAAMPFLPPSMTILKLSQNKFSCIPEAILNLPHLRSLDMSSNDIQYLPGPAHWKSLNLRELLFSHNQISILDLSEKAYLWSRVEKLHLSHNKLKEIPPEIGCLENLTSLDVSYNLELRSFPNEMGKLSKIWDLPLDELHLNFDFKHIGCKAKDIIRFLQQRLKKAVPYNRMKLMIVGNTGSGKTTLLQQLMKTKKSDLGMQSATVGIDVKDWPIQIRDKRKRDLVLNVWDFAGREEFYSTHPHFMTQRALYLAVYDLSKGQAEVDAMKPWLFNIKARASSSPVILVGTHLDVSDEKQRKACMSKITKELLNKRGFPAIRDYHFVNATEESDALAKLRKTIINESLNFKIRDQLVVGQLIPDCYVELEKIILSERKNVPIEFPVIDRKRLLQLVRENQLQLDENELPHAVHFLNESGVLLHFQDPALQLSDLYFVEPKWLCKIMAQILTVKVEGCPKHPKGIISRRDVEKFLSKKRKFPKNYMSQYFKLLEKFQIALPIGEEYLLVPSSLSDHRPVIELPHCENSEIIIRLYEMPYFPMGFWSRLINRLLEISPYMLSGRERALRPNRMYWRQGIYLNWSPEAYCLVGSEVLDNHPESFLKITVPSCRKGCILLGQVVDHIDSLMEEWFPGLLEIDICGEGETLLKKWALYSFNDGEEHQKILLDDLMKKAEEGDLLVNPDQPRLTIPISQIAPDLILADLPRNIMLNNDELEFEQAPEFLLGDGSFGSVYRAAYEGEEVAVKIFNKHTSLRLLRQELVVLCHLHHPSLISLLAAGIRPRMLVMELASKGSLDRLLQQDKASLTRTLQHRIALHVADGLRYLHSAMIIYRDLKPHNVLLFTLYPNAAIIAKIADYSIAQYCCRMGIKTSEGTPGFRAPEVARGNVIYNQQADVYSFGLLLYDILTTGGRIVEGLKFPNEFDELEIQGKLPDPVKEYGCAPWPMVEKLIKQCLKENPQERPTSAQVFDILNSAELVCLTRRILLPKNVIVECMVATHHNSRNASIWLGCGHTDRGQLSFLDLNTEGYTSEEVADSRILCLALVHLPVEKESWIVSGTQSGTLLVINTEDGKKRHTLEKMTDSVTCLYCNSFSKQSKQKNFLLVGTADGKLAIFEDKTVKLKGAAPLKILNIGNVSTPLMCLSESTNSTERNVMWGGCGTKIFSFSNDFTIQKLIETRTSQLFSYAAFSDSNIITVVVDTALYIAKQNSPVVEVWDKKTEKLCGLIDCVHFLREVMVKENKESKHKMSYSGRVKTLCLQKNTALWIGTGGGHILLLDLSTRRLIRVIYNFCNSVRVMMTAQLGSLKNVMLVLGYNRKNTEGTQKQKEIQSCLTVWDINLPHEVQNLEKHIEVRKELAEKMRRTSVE
Protocol: LRRK2 G2019S enzyme inhibition, ADP-Glo kinase assay
Type: biochemical
Set-up: purchased SignalChem L10-12GG
Details: ATP 25 μM
Quantity Measured: IC50

Answered examples (3):
Compound	IC50
COc1cc(S(C)(=O)=O)ccc1Nc1nc(N[C@H]2CCOC2)c2c(C(F)(F)F)c[nH]c2n1	< 100 nM
COCCNc1nc(Nc2ccc(C(=O)N3CCOCC3)c3c2OCCO3)nc2[nH]ccc12 [Example 46, 2,2,2-trifluoroacetate]	< 100 nM
COc1cc(S(=O)(=O)N2CCC(N3CCOCC3)CC2)ccc1Nc1nc(NC2CCCCC2)c2c(C#N)c[nH]c2n1	< 100 nM

Attention now turns to another entry.
GET /values?readout=IC50&item= O=C(c1ccc(Nc2nc(NC3CCC3)c3c(C(F)(F)F)c[nH]c3n2)c2c1OCCO2)N1CCOCC1
101 to 300 nM

---

IC50 values by entry
Target Or System: LRRK2 (Homo sapiens, UniProt Q5S007)
Sequence (Q5S007 970-2527 limits assumed): as the sequence (Q5S007 970-2527 G2019S limits assumed) above, with S1050G counted along it
Protocol: LRRK2 enzyme inhibition, ADP-Glo kinase assay
Format: biochemical
Set-up: purchased Invitrogen PR8604B
Details: ATP 10 μM

Answered examples (3):
COCCNc1nc(Nc2ccc(S(=O)(=O)N3CCOCC3)cc2OC)nc2[nH]cc(C#N)c12 < 100 nM
COc1cc(S(C)(=O)=O)ccc1Nc1nc(NC2CCOCC2)c2c(C#N)c[nH]c2n1 < 100 nM
COc1cc(S(=O)(=O)N2CCOCC2)ccc1Nc1nc(NC2CC2)c2c(C#N)c[nH]c2n1 < 100 nM

Attention now turns to another entry.
GET /values?readout=IC50&item= COc1cc(S(=O)(=O)N2CCC(N3CCOCC3)CC2)ccc1Nc1nc(NC2CCCC2)c2c(C#N)c[nH]c2n1
101 to 300 nM

---

Measurement record for human GST-CLK1 (Homo sapiens, UniProt P49759); quantity recorded: pIC50.
pIC50: −log10 of the molar value.

Answered examples (3):
Compound	pIC50
N#Cc1c[nH]c2nc(Nc3ccc(C(=O)N4CCN(C5COC5)CC4)c4c3OCCO4)nc(NCC3CCC3)c12	6.52 to 7.00
N#Cc1c[nH]c2nc(Nc3ccc(C(=O)N4CCC(N5CCOCC5)CC4)c4c3OCC4)nc(NCC3CCCC3)c12	6.00 to 6.52
N#Cc1c[nH]c2nc(Nc3ccc(C(=O)N4CCOCC4)c4c3OCCO4)nc(NC3CCCC3)c12	6.00 to 6.52

GET /values?readout=pIC50&item= CCNc1nc(Nc2ccc(S(=O)(=O)N3CCOCC3)cc2OC)nc2[nH]ccc12 [Example 5, 2,2,2-trifluoroacetate]
6.00 to 6.52

GET /values?readout=pIC50&item= COc1cc(P(C)(C)=O)ccc1Nc1nc(NC2COC2)c2c(C#N)c[nH]c2n1
6.00 to 6.52

GET /values?readout=pIC50&item= COc1cc(S(=O)(=O)N2CCC(N3CCOCC3)CC2)ccc1Nc1nc(NC2CCCC2)c2c(C(F)(F)F)c[nH]c2n1
6.00 to 6.52

GET /values?readout=pIC50&item= CCNc1nc(Nc2ccc(C(=O)N3CCC(N4CCOCC4)CC3)c3c2OCCO3)nc2[nH]cc(C(F)(F)F)c12
> 7.00

---

Target Or System: PLK4 (Homo sapiens, UniProt O00444)
Construct: purchased DiscoverX Corp. (ScanMAX Kinase analysis panel, service)
Sequence (O00444 whole entry): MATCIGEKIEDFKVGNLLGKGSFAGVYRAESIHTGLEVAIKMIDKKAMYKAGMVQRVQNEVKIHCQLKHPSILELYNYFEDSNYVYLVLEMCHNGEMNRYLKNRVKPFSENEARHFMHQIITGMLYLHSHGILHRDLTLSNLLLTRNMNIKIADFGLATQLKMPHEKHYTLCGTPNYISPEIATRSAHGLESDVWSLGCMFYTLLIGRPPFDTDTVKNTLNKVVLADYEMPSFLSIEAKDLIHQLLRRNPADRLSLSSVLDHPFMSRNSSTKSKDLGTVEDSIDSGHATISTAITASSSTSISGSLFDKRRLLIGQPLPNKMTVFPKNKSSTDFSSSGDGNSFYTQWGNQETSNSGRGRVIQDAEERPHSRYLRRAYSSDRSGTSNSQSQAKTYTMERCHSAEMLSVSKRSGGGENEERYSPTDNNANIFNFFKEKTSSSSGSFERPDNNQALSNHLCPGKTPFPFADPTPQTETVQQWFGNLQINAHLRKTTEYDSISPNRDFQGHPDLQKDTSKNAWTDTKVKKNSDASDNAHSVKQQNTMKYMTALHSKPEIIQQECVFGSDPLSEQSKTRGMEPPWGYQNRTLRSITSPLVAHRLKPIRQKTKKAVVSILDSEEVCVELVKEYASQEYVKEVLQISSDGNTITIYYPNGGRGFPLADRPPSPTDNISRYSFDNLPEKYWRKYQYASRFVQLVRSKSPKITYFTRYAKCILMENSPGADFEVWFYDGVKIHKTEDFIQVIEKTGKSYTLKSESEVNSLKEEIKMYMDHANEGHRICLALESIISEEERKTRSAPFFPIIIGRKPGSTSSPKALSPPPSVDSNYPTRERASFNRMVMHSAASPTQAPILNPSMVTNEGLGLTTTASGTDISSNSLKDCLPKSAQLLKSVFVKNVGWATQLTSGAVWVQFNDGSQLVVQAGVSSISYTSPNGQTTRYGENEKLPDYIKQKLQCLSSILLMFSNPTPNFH
Protocol: ScanMAX Kinase analysis panel, PLK4
Assay type: binding
Details: 1 μM in DMSO; <35% considered inhibitory; read-out: percent control (% control), PLK4
Quantity Measured: remaining binding at 1 µM

GET /values?readout=remaining binding at 1 µM&item= C=CCNc1nc(Nc2ccc(S(=O)(=O)N3CCC(N4CCOCC4)CC3)cc2OC)nc2[nH]cc(C#N)c12
0.3%

GET /values?readout=remaining binding at 1 µM&item= O=C(c1ccc(Nc2nc(C3CC3)c3c(C(F)(F)F)c[nH]c3n2)c2c1OCCO2)N1CCC(N2CCOCC2)CC1
3.2%

---

pIC50 values by entry
Target Or System: human GST-CLK1 (Homo sapiens)
Construct: purified human GST-CLK1 (129-end, SignalChem) enzyme; purchased SignalChem
Sequence (P49759 129-484 limits assumed): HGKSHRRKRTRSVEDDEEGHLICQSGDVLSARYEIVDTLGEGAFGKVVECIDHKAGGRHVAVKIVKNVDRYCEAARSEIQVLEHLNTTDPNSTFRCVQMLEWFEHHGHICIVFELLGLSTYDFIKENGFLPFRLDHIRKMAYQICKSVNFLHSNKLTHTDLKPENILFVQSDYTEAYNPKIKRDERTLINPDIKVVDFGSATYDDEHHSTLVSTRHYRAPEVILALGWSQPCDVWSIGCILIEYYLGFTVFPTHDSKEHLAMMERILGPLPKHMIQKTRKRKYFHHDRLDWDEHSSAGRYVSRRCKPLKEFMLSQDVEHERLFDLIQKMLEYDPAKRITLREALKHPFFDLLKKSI
Protocol: GST-CLK1 enzyme inhibition, ADP-Glo kinase assay
Format: biochemical
Details: ATP 10 μM, GST-CLK1 129-end
pIC50: −log10 of the molar value.

Molecule	Reported Measurement
COc1cc(P2(=O)CCN(C3COC3)CC2)ccc1Nc1nc(NC2CCCCC2)c2cc[nH]c2n1	6.00 to 6.52
CCCNc1nc(Nc2ccc(C(=O)N3CCC(N4CCOCC4)CC3)c3c2OCCO3)nc2[nH]cc(C#N)c12	> 7.00

GET /values?readout=pIC50&item= CCNc1nc(Nc2ccc(P3(=O)CCN(C4CC4)CC3)cc2OC)nc2[nH]cc(C(F)(F)F)c12
> 7.00

---

Measurement record for human GST-DYRK1A (Homo sapiens); quantity recorded: IC50.

GET /values?readout=IC50&item= COc1cc(S(C)(=O)=O)ccc1Nc1nc(N[C@H]2CCOC2)c2c(C(F)(F)F)c[nH]c2n1
301 to 1000 nM

---

Measurement record for human GST-CLK1 (Homo sapiens); quantity recorded: IC50.

Compound	Reported Measurement
N#Cc1c[nH]c2nc(Nc3ccc(C(=O)N4CCC(N5CCOCC5)CC4)c4c3OCCO4)nc(NC3CC3)c12	< 100 nM
CCNc1nc(Nc2ccc(C(=O)N3CCOCC3)c3c2OCO3)nc2[nH]cc(C#N)c12	301 to 1000 nM
CCNc1nc(Nc2ccc(S(=O)(=O)N3CCC(N4CCOCC4)CC3)cc2OC)nc2[nH]cc(C(F)(F)F)c12 [Example 158, 2,2,2-trifluoroacetate]	< 100 nM
CCNc1nc(Nc2ccc(S(=O)(=O)N3CCOCC3)c3c2OCCO3)nc2[nH]cc(C(F)(F)F)c12	301 to 1000 nM
CC[C@@H](C)Nc1nc(Nc2ccc(C(=O)N3CC(CO)(CO)C3)c3c2OCCO3)nc2[nH]cc(C#N)c12	< 100 nM

Lookup: IC50 / human GST-CLK1 (Homo sapiens) / N#Cc1c[nH]c2nc(Nc3ccc(C(=O)N4CCOCC4)c4c3OCC4)nc(NC3CCCCC3)c12
101 to 300 nM

Lookup: IC50 / human GST-CLK1 (Homo sapiens) / CC[C@H](C)Nc1nc(Nc2ccc(S(C)(=O)=O)cc2OC)nc2[nH]ccc12
301 to 1000 nM

Lookup: IC50 / human GST-CLK1 (Homo sapiens) / COc1cc(S(=O)(=O)N2CCOCC2)ccc1Nc1nc(NC2CCC2)c2c(C(F)(F)F)c[nH]c2n1
< 100 nM

Lookup: IC50 / human GST-CLK1 (Homo sapiens) / O=C(c1ccc(Nc2nc(NC3CCC3)c3cc[nH]c3n2)c2c1OCCO2)N1CCOCC1
301 to 1000 nM

Lookup: IC50 / human GST-CLK1 (Homo sapiens) / COCC(C)(C)Nc1nc(Nc2ccc(S(=O)(=O)N3CCC(N4CCOCC4)CC3)cc2OC)nc2[nH]cc(C#N)c12
101 to 300 nM

Lookup: IC50 / human GST-CLK1 (Homo sapiens) / COc1cc(P2(=O)CCN(C3COC3)CC2)ccc1Nc1nc(NCCS(C)(=O)=O)c2c(C#N)c[nH]c2n1
301 to 1000 nM

Lookup: IC50 / human GST-CLK1 (Homo sapiens) / CCNc1nc(Nc2ccc(C(=O)N3CC[C@@H](N4CCOCC4)C3)c3c2OCC3)nc2[nH]cc(C(F)(F)F)c12
< 100 nM

Lookup: IC50 / human GST-CLK1 (Homo sapiens) / COc1cc(S(C)(=O)=O)ccc1Nc1nc(NC2CCCC2)c2cc[nH]c2n1
301 to 1000 nM

Lookup: IC50 / human GST-CLK1 (Homo sapiens) / COCCNc1nc(Nc2ccc(S(C)(=O)=O)cc2OC)nc2[nH]ccc12 [Example 21, 2,2,2-trifluoroacetate]
301 to 1000 nM

Lookup: IC50 / human GST-CLK1 (Homo sapiens) / COc1cc(S(=O)(=O)N2CCOCC2)ccc1Nc1nc(NCC(C)C)c2c(C#N)c[nH]c2n1
301 to 1000 nM

Lookup: IC50 / human GST-CLK1 (Homo sapiens) / COCC(C)(C)Nc1nc(Nc2ccc(S(C)(=O)=O)cc2OC)nc2[nH]ccc12
301 to 1000 nM

Lookup: IC50 / human GST-CLK1 (Homo sapiens) / CNc1nc(Nc2ccc(C(=O)N3CCOCC3)c3c2OCC3)nc2[nH]cc(C(F)(F)F)c12
< 100 nM

Lookup: IC50 / human GST-CLK1 (Homo sapiens) / COc1cc(P2(=O)CCN(C3COC3)CC2)ccc1Nc1nc(NC2CCC2)c2c(C#N)c[nH]c2n1
< 100 nM

Lookup: IC50 / human GST-CLK1 (Homo sapiens) / O=C(c1ccc(Nc2nc(C3CC3)c3c(C(F)(F)F)c[nH]c3n2)c2c1OCCO2)N1CCC(N2CCOCC2)CC1
< 100 nM

Lookup: IC50 / human GST-CLK1 (Homo sapiens) / CC(C)CNc1nc(Nc2ccc(C(=O)N3CCOCC3)c3c2OCCO3)nc2[nH]cc(C#N)c12
101 to 300 nM

Lookup: IC50 / human GST-CLK1 (Homo sapiens) / COc1cc(S(=O)(=O)N2CCC(N3CCOCC3)CC2)ccc1Nc1nc(NC2CCCCC2)c2c(C#N)c[nH]c2n1
301 to 1000 nM

Lookup: IC50 / human GST-CLK1 (Homo sapiens) / CC(C)Nc1nc(Nc2ccc(C(=O)N3CCC(N4CCOCC4)CC3)c3c2OCC3)nc2[nH]cc(C(F)(F)F)c12
< 100 nM

Data provenance is patent US20230066011A1.
